# assay target: Sko1 (UniProt Q02100)
# Sequence: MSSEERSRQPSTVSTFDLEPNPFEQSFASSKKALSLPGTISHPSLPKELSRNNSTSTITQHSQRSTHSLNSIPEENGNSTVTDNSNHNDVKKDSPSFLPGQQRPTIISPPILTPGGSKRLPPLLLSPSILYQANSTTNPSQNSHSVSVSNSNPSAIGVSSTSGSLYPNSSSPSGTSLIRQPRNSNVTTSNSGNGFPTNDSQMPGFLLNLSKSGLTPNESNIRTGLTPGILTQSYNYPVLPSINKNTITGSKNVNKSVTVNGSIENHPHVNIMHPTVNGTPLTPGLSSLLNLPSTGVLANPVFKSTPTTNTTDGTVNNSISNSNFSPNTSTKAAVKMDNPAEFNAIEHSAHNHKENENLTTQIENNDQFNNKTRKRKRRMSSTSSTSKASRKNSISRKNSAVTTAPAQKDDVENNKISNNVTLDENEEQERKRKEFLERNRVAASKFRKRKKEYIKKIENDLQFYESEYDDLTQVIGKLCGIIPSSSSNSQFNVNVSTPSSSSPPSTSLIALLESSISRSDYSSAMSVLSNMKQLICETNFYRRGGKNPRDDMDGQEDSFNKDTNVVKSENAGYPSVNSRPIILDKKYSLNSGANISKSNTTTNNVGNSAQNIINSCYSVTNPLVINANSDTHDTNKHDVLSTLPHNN
# test protocol: PBM E-score (8-mer binding enrichment) (E-score (-0.5 to 0.5)); higher = stronger / more preferred TF binding
# measurement parameters: protein concentration: 200 nM; construct: GST-full length
The full ranking holds about 33,000 sequences; the median of “E-score (-0.5 to 0.5)” is about -0.032, and the highest 2% start at about 0.36. The full list was thinned out, with the highest values kept by preference.
outcome measure: PBM E-score

>>> reported_value("CCGTCAAC")
-0.0749
>>> reported_value("AGATGTAA")
0.256
>>> reported_value("CTACGTAG")
0.449
>>> reported_value("CCCCACGG")
-0.22
>>> reported_value("GCGTCAAC")
0.302
>>> reported_value("TATTACAA")
0.221
>>> reported_value("GAGGTAAC")
0.0793
>>> reported_value("GGCACGCA")
-0.00979
>>> reported_value("ATTTACGC")
0.281
>>> reported_value("GATTACTA")
0.204
>>> reported_value("ATCACGTC")
0.42
>>> reported_value("ATCCGTAC")
0.151
>>> reported_value("ATAATAGG")
0.114
>>> reported_value("ATCACGCC")
0.0558
>>> reported_value("AAGACGCT")
-0.168
>>> reported_value("GCTTACGA")
0.238
>>> reported_value("CCAGTCTA")
-0.255
>>> reported_value("GTACGTAC")
0.44
>>> reported_value("GGCACGTA")
0.395
>>> reported_value("ATGTCAAT")
0.226
>>> reported_value("ACGTCGAT")
0.432
>>> reported_value("ACCGCTTA")
-0.00218
>>> reported_value("ATTACATC")
0.403
>>> reported_value("AATCGACG")
0.295
>>> reported_value("CCGTCAAG")
-0.0482
>>> reported_value("ATTCACGG")
0.095
>>> reported_value("CAAGTCTA")
-0.0923
>>> reported_value("GTACCCCA")
-0.19
>>> reported_value("AAAGCTTA")
0.141
>>> reported_value("ATCACGCG")
0.254
>>> reported_value("ATTACATA")
0.386
>>> reported_value("AACGTATA")
0.406
>>> reported_value("ACGTCCAA")
0.288
>>> reported_value("ATTACATG")
0.324
>>> reported_value("AGTACATC")
0.142
>>> reported_value("CTTTACGA")
0.218
>>> reported_value("CTTACATC")
0.202
>>> reported_value("ATCACGGA")
0.126
>>> reported_value("ACTCGCCT")
-0.196
>>> reported_value("CTACGGAA")
0.157
>>> reported_value("CCGCTCCG")
-0.269
>>> reported_value("AATTACGA")
0.411
>>> reported_value("GGCACGGA")
-0.233
>>> reported_value("ACGTCAAG")
0.444
>>> reported_value("GGCTTCCA")
-0.218
>>> reported_value("CGCCCCAC")
-0.0143
>>> reported_value("ACGTCAAC")
0.469
>>> reported_value("ATACGAAC")
0.256
>>> reported_value("TATCGCCA")
0.0834
>>> reported_value("GGTTTGAC")
0.0235
>>> reported_value("AAAACAGA")
0.112
>>> reported_value("GCACTGCA")
0.0142
>>> reported_value("GTCACGCA")
0.25
>>> reported_value("CGCACGTC")
0.333
>>> reported_value("AGTAATCA")
0.0126
>>> reported_value("CATTACGA")
0.398
>>> reported_value("CGTTACGA")
0.349
>>> reported_value("GTGTCCAA")
0.142
>>> reported_value("AATTACCA")
0.151
>>> reported_value("CGATGTAA")
0.175
>>> reported_value("ACAGCTGT")
-0.245
>>> reported_value("CGTTCAAC")
0.112
>>> reported_value("CAGAACTC")
-0.0896
>>> reported_value("CGTAATCA")
0.452
>>> reported_value("TACGGTGA")
0.0938
>>> reported_value("AATTACGC")
0.44
>>> reported_value("TGATGTAA")
0.434
>>> reported_value("GTTACATA")
0.251
>>> reported_value("GGAACTAA")
-0.0195
>>> reported_value("ATCACGTG")
0.411
>>> reported_value("AATTACTA")
0.195
>>> reported_value("TATTACCA")
0.227
>>> reported_value("ACGGTCGG")
-0.28
>>> reported_value("CCTGGTAA")
-0.124
>>> reported_value("GCGTCAAA")
0.274
>>> reported_value("GGGCAATA")
-0.14
>>> reported_value("AGACTACA")
-0.158
>>> reported_value("TATTACGA")
0.414
>>> reported_value("GAACACAC")
-0.0651
>>> reported_value("AACGTTTC")
0.199
>>> reported_value("CATTACGG")
0.292
>>> reported_value("CTCACGTC")
0.278
>>> reported_value("ACTAGATC")
-0.0827
>>> reported_value("CGCACGCA")
0.211
>>> reported_value("CACGCTTA")
0.116
>>> reported_value("GTACGAAC")
0.284
>>> reported_value("GAGGTTCC")
-0.182
>>> reported_value("ATACGTAC")
0.473
>>> reported_value("CGTAATCC")
0.405
>>> reported_value("AATTACCC")
0.0055
>>> reported_value("ACGACTTG")
-0.058
